Listed here are compounds together with their documented activation.
Molecular target: 5-hydroxytryptamine receptor 1A (Homo sapiens)
Test: agonism at serotonin HTR1A receptor – cell-based, CHO, Ga15 NFAT-bla reporter, primary screen (AID 567);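 also: 0% = DMSO wells and 100% = 5-CT at EC100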
Details: CHO 5-HT1a Ga15 NFAT-bla reporter, FRET ratio; at 10 µM; active compounds read high
The campaign covered roughly 65,000 compounds. About 370 (0.57%) were called active. The sample as a whole holds a higher share of actives than the screen did.
value-type: activation (%)

{"compound": "CCOC(=O)C1CN(C)CCC1=O (stereo unspecified)", "value-type": "activation", "obs-value": -3.2}
{"compound": "O=C(c1cc2nc(-c3ccccc3)cc(-c3ccccc3)n2n1)N1CCC2(CC1)OCCO2", "value-type": "activation", "obs-value": 0.72}
{"compound": "CC(=O)N(C1=NCCCS1)c1ccccc1F", "value-type": "activation", "obs-value": -0.07}
{"compound": "Fc1cccc(F)c1CN1CCN(Cc2c(F)cccc2F)CC1", "value-type": "activation", "obs-value": -2.86}
{"compound": "COC(=O)C(c1ccccc1)N1CCCCCC1 (stereo unspecified)", "value-type": "activation", "obs-value": 1.53}
{"compound": "Cc1ccc2c(c1)C1CN(C)CCC1N2C(=O)Cn1nnc(-c2ccccc2F)n1 (stereo unspecified)", "value-type": "activation", "obs-value": 1.76}

Each recorded value in this set is attributed to PubChem BioAssay AID567.
